# TEST_SUMMARY: Solubility of the compound
# Assay type: physicochemical
QUANTITY_KIND: solubility (µg/mL)
Please state the figure in µg/mL; there is no need to write the unit.

stdin: In one line, give reported solubility of the entry `C[C@@H]1C[C@H](C)CN(S(=O)(=O)c2ccc3c(c2)/C(=N\O)c2cc(S(=O)(=O)N4C[C@H](C)C[C@H](C)C4)ccc2/C3=N/O)C1` .
stdout: 1

---

# TEST_SUMMARY: Inhibition of Wnt/beta-catenin transcriptional activity in human HT-29 cells assessed as depletion of beta-catenin level by TCF luciferase promoter reporter assay
# Type: cell-based
# CONDITIONS_USED: Homo sapiens, HT-29
QUANTITY_KIND: IC50 (nM)
Field format: number, assumed nM, no unit text.

stdin: Look up and report measured IC50 for this entry: CC(NS(=O)(=O)c1ccc2c(c1)C(=NO)c1cc(S(=O)(=O)NC(C)c3ccccc3)ccc1-2)c1ccccc1 (configuration not stated)
stdout: 10000

stdin: Give the measured IC50 for `CC(C)(C)C1CCN(S(=O)(=O)c2ccc3c(c2)/C(=N\O)c2ccc(S(=O)(=O)N4CCC(C(C)(C)C)CC4)cc2/C3=N/O)CC1`
stdout: 300

stdin: Please report IC50 for the following molecule: `O=S(=O)(c1ccc2c(c1)C(=NO)c1cc(S(=O)(=O)N3CCCCCCCC3)ccc1C2=NO)N1CCCCCCCC1`
stdout: 160

stdin: Supply measured IC50 of C[C@@H]1C[C@H](C)CN(S(=O)(=O)c2ccc3c(c2)/C(=N\O)c2cc(S(=O)(=O)N4C[C@H](C)C[C@H](C)C4)ccc2/C3=N/O)C1 [TEGAVIVINT] in your reply.
stdout: 630

stdin: Check the records and state IC50 for `CC(C)(C)C1CCN(S(=O)(=O)c2ccc3c(c2)C(=NO)c2cc(S(=O)(=O)N4CCC(C(C)(C)C)CC4)ccc2C3=NO)CC1`
stdout: 300

---

# TEST_SUMMARY: Plasma concentration in mouse at 10 mg/kg, iv after 12 hrs
# Type: ADME, organism-based
QUANTITY_KIND: concentration at 12 h (nM)
Give the value, in units of nM, as a plain number.

stdin: Item `C[C@@H]1C[C@H](C)CN(S(=O)(=O)c2ccc3c(c2)/C(=N\O)c2cc(S(=O)(=O)N4C[C@H](C)C[C@H](C)C4)ccc2/C3=N/O)C1` : provide concentration at 12 h
stdout: 1000

---

# Tested on: Plasma
# TEST_SUMMARY: Plasma concentration in mouse at 10 mg/kg, iv
# Assay type: ADME, organism-based
# CONDITIONS_USED: in vivo
QUANTITY_KIND: concentration (µM)
Quick note: give the figure in µM, leave out the unit.

stdin: Specify measured concentration for `C[C@@H]1C[C@H](C)CN(S(=O)(=O)c2ccc3c(c2)/C(=N\O)c2cc(S(=O)(=O)N4C[C@H](C)C[C@H](C)C4)ccc2/C3=N/O)C1` .
stdout: 10

---

# TEST_SUMMARY: Lipophilicity, log D of the compound
# Assay type: physicochemical
# CONDITIONS_USED: octanol/water
QUANTITY_KIND: logD
I only need the number, thanks.

stdin: Supply recorded logD for `C[C@@H]1C[C@H](C)CN(S(=O)(=O)c2ccc3c(c2)/C(=N\O)c2cc(S(=O)(=O)N4C[C@H](C)C[C@H](C)C4)ccc2/C3=N/O)C1` here.
stdout: 3.3
